# protocol: Pharmacokinetic study of IPA in rats after i.v. or oral administration (LC-MS/MS of plasma, noncompartmental analysis)
# Type: in vivo, Sprague-Dawley rats
# assayConditions: male, Sprague-Dawley, plasma, po; rat, p.o. 50 mg/kg
measure: MRT (h)
Respond numerically; units are h and should not be typed.

Sample C=C[C@@]1(C)CC[C@H]2C(=CC[C@@H]3[C@]2(C)CCC[C@@]3(C)C(=O)O)C1 [IPA, isopimaric acid] ; MRT observed: 9.3

###

# protocol: Pharmacokinetic study of IPA in rats after i.v. or oral administration (LC-MS/MS of plasma, noncompartmental analysis)
# Type: in vivo, Sprague-Dawley rats
# assayConditions: male, Sprague-Dawley, plasma, po; rat, p.o. 50 mg/kg
measure: half-life (h)
Respond numerically; units are h and should not be typed.

Sample `C=C[C@@]1(C)CC[C@H]2C(=CC[C@@H]3[C@]2(C)CCC[C@@]3(C)C(=O)O)C1` ; half-life observed: 10.4

###

# protocol: Pharmacokinetic study of IPA in rats after i.v. or oral administration (LC-MS/MS of plasma, noncompartmental analysis)
# Type: in vivo, Sprague-Dawley rats
# assayConditions: male, Sprague-Dawley, plasma, po; rat, p.o. 50 mg/kg
measure: AUC(0-inf) (ng·h/mL)
Respond numerically; units are ng·h/mL and should not be typed.

Sample `C=C[C@@]1(C)CC[C@H]2C(=CC[C@@H]3[C@]2(C)CCC[C@@]3(C)C(=O)O)C1` ; AUC(0-inf) observed: 923

###

# protocol: Pharmacokinetic study of IPA in rats after i.v. or oral administration (LC-MS/MS of plasma, noncompartmental analysis)
# Format: in vivo, Sprague-Dawley rats
# assayConditions: male, Sprague-Dawley, plasma, po; rat, p.o. 100 mg/kg; read-out: T max 2
measure: Tmax (h)
Respond numerically; units are h and should not be typed.

Sample `C=C[C@@]1(C)CC[C@H]2C(=CC[C@@H]3[C@]2(C)CCC[C@@]3(C)C(=O)O)C1` ; Tmax observed: 6

###

# protocol: Pharmacokinetic study of IPA in rats after i.v. or oral administration (LC-MS/MS of plasma, noncompartmental analysis)
# Format: in vivo, Sprague-Dawley rats
# assayConditions: male, Sprague-Dawley, plasma, po; rat, p.o. 200 mg/kg
measure: MRT (h)
Respond numerically; units are h and should not be typed.

Sample C=C[C@@]1(C)CC[C@H]2C(=CC[C@@H]3[C@]2(C)CCC[C@@]3(C)C(=O)O)C1 [IPA, isopimaric acid] ; MRT observed: 7.9

###

# protocol: Pharmacokinetic study of IPA in rats after i.v. or oral administration (LC-MS/MS of plasma, noncompartmental analysis)
# Type: in vivo, Sprague-Dawley rats
# assayConditions: male, Sprague-Dawley, plasma, po; rat, p.o. 50 mg/kg; read-out: CL/F (converted)
measure: CL/F (mL/min/kg)
Respond numerically; units are mL/min/kg and should not be typed.

Sample C=C[C@@]1(C)CC[C@H]2C(=CC[C@@H]3[C@]2(C)CCC[C@@]3(C)C(=O)O)C1 [IPA, isopimaric acid] ; CL/F observed: 1170

###

# protocol: Pharmacokinetic study of IPA in rats after i.v. or oral administration (LC-MS/MS of plasma, noncompartmental analysis)
# Type: in vivo, Sprague-Dawley rats
# assayConditions: male, Sprague-Dawley, plasma, oral; rat, p.o. 50 mg/kg vs i.v. 5 mg/kg; read-out: absolute bioavailability
measure: bioavailability (%)
Respond numerically; units are % and should not be typed.

Sample `C=C[C@@]1(C)CC[C@H]2C(=CC[C@@H]3[C@]2(C)CCC[C@@]3(C)C(=O)O)C1` ; bioavailability observed: 11.9
